B1: TRIM55 (parent)
chain: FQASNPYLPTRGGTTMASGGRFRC

- Variants of: B1
- protocol text: protein stability index of a GFP-peptide fusion (GPS, HEK-293T) (PSI 1-6); higher = more stable;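 also: lentivirally expressed fusions sorted by FACS into six bins by GFP to DsRed ratio, PSI derived from sequencing read proportions per bin multiplied by bin number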
- condition summary: c terminus: a fixed tail appended
// false strictly below 2 in protein stability index; true otherwise

Example results:
> print(dat)
   mutation.notation  category.label
1                A3W            true
2               F22N            true
3               T10V            true

Task: Record M16R ; criterion: protein stability index no lower than 2. Met?
Result: false

Task: Check R11P too.
Result: true

Task: Check L8I too.
Result: true

Task: Check M16D too.
Result: false

Task: Check R11H too.
Result: false

Task: Check A17V too.
Result: true

Task: Check P9Q too.
Result: false

Task: Check M16P too.
Result: true

Task: Check R21Y too.
Result: false

The reported measurements were obtained from the supplement of paper PMC10567573.
